- assay-remarks: Growth inhibition of human NCI60 cells after 48 hrs by SRB assay
- Assay type: functional
- setup-conditions: NCI60, 48 h
property-measured: log10 TGI (log10 of the value in nM)
Recorded TGI (log10, nM)

I need log10 TGI for every entry listed below, if you could help.
1. COc1cc2c(cc1OC)C(=O)N1C=C(c3ccccc3C)C[C@H]1C=N2
2. COc1cc2c(cc1OC)C(=O)N1C=C(c3cccnc3)C[C@H]1C=N2
3. COc1cc2c(cc1OC)C(=O)N1C=C(c3ccc(N4CCN(C)CC4)cc3)C[C@H]1C=N2
4. COc1cc2c(cc1OC)C(=O)N1C=C(c3ccccc3)C[C@H]1C=N2
5. COc1cc2c(cc1OC)C(=O)N1C=C(c3ccncc3)C[C@H]1C=N2
6. COc1cc2c(cc1OC)C(=O)N1C=C(c3cccc(Cl)c3)C[C@H]1C=N2
7. COc1cc2c(cc1OC)C(=O)N1C=C(c3ccc4[nH]ccc4c3)C[C@H]1C=N2
8. CO[C@H]1Nc2c(ccc(C)c2O)C(=O)N2C=C(/C=C/C(N)=O)C[C@@H]12

RESULT:
1: 2.40; 2: 1.85; 3: 1.90; 4: 1.60; 5: 2.78; 6: 2.00; 7: 1.60; 8: 3.20

Need log10 TGI for each of these molecules.
1. COc1cc2c(cc1OC)C(=O)N1C=C(c3ccc4ccc5cccc6ccc3c4c56)C[C@H]1C=N2
2. COc1cc2c(cc1OC)C(=O)N1C=C(c3ccc(NC(C)=O)cc3)C[C@H]1C=N2
3. COc1cc2c(cc1OC)C(=O)N1C=C(c3cn[nH]c3)C[C@H]1C=N2
4. COc1cc2c(cc1OC)C(=O)N1C=C(c3ccc(SC)cc3)C[C@H]1C=N2
5. COc1cc2c(cc1OC)C(=O)N1C=C(c3cccs3)C[C@H]1C=N2
6. COc1cc2c(cc1OC)C(=O)N1C=C(c3ccc(C(C)(C)C)cc3)C[C@H]1C=N2
7. COc1cc2c(cc1OC)C(=O)N1C=C(c3cccc(OC(F)(F)F)c3)C[C@H]1C=N2
8. COc1cccc(C2=CN3C(=O)c4cc(OC)c(OC)cc4N=C[C@@H]3C2)c1

RESULT:
1: 3.16; 2: 2.30; 3: 2.43; 4: 1.30; 5: 2.18; 6: 1.70; 7: 2.26; 8: 1.78

For every listed record, write down its log10 TGI.
1. COc1cc2c(cc1OC)C(=O)N1C=C(c3ccc(Cl)c(Cl)c3)C[C@H]1C=N2
2. COc1cc2c(cc1OC)C(=O)N1C=C(c3cnc4ccccc4c3)C[C@H]1C=N2
3. COc1cc2c(cc1OC)C(=O)N1C=C(c3cc4ccccc4o3)C[C@H]1C=N2
4. COc1cc2c(cc1OC)C(=O)N1C=C(/C=C/c3ccc(C)cc3)C[C@H]1C=N2

RESULT:
[1.70, 0.00, 1.70, 1.70]

These data points were gathered from ChEMBL document CHEMBL1165887.
